Tested on: MCC-13
Experiment: qHTS assay to identify novel small-molecules to repurpose for Merkel cell carcinoma treatment (AID 1296009); further: nearly all actives have a fitted effect of over 60% in size
Conditions: MCC and control cell lines, CellTiter-Glo viability, 72 h; series mostly up to 46 µM
Inconclusive results are not listed. Active and inactive are the calls of the source. The call rests on the fitted dose curve; in most records, active means well fitted inhibition curve with a large enough effect; inconclusive means small, poorly fitted or top-dose-only effect; inactive means flat fitted curve, though single readings scatter.
One label from this list, please: Y for active, N for inactive

Just curious, what result did COc1cc2nc(-c3cc(F)ccc3O)nc(N[C@@H]3CNC[C@@H]3C(C)(C)O)c2cc1OC get here?
Y

# repeat for N#Cc1c(N(CC(=O)O)CC(=O)O)sc(C(=O)O)c1CC(=O)O
N

# repeat for O=C(NCCCCN1CCOCC1)c1cc2ccccc2o1
N

# repeat for O=C1CCCC(=O)C1C(=O)c1ccc(C(F)(F)F)cc1[N+](=O)[O-]
N

# repeat for C=C1c2cccc(O)c2C(O)=C2C(=O)[C@@]3(O)C(O)=C(C(N)=O)C(=O)[C@@H](N(C)C)[C@@H]3[C@@H](O)[C@H]12
N

* * *

Assay: High-throughput drug toxicity screening in the BPDCN cell line Gen2.2 (AID 1224824);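 further: cells exposed to compounds for 48 h before reading; 100% = DMSO and 0% = bortezomib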
Conditions: Gen2.2 BPDCN cells; at 45.8 µM (top of the series) unless noted
# cell viability, % of control (lower = more cytotoxic) annotations
Enter your answer as a number in %; do not include the unit.

Reference set, count: 5
CC(C)[C@H](O)C(=O)N[C@@H](C)C(=O)N[C@@H]1C(=O)N(C)CCc2ccccc21 ... 95.1
N#CC(c1ccnc(NCCc2cccnc2)n1)c1nc2ccccc2s1 (stereo unspecified) ... 9.41
CCNC(=O)Nc1ccc(Oc2ncnc(N)c2C=NOC)cc1Cl ... 52.6
CC(=O)OCC(=O)[C@@]1(O)CC[C@H]2[C@@H]3CCC4=CC(=O)C=C[C@]4(C)[C@@H]3[C@@H](O)C[C@@]21C ... 165
CN1CC(=O)N2C(Cc3c([nH]c4ccccc34)[C@H]2c2ccc3c(c2)OCO3)C1=O (stereo partly specified) ... 110

Turning to the following molecule.
What cell viability, % of control (lower = more cytotoxic) value was documented for this molecule, CC[C@H](C)n1cc(C)c2c(C(=O)NCc3c(C)cc(C)[nH]c3=O)cc(-c3ccc(N4CCNCC4)nc3)cc21 ?
133

* * *

Experiment: qHTS Assay for Identification of Small Molecule Antagonists for NFkB Signaling Pathway. (AID 624479);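 further: pathway stimulated with TNF alpha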
Conditions: NFkB pathway reporter cell assay, antagonist mode; series mostly up to 38.3 µM
Active and inactive are the calls of the source. Calls come from the whole dose curve.
One label from this list, please: 1 (yes) (active), 0 (no) (inactive)

Some entries whose results are on file:
CCCCn1c(=O)n(Cc2ccccc2F)c(=O)c2[nH]c(Cc3ccc(NC(C)=O)cc3)nc21 ... 1 (yes)
COc1cccc(OC)c1-c1cc(C(=O)NC2(C(=O)O)C3CC4CC(C3)CC2C4)nn1-c1ccnc2cc(Cl)ccc12 (stereo not given) ... 1 (yes)
CC(C)n1c(C=C[C@H](O)C[C@H](O)CC(=O)O)c(-c2ccc(F)cc2)c2ccccc21 ... 0 (no)
COc1cc2nccc(Oc3ccc(NC(=O)Nc4cc(C)on4)c(Cl)c3)c2cc1OC ... 1 (yes)
CC(C)Oc1cc(Nc2nc(N[C@@H](C)c3ccc(F)cn3)ncc2Cl)[nH]n1 ... 1 (yes)

Just curious, what result did Cc1ccc(NC(=O)c2ccc(CN3CCN(C)CC3)cc2)cc1Nc1nc(-c2cccnc2)cs1 get here?
1 (yes)

# repeat for NC(=O)c1ccc(N(C(N)=O)c2c(F)cccc2F)nc1-c1ccc(F)cc1F
0 (no)

# repeat for O=C1CN2Cc3c(ccc(Cl)c3Cl)N=C2N1
0 (no)

# repeat for CC(C)C[C@@H](C(=O)N[C@H](C(=O)OC1CCCC1)c1ccccc1)[C@H](O)C(=O)NO
0 (no)

# repeat for CCN(CC)CCCCNc1nc2cc(Cl)c(Cl)cc2nc1-c1ccc(-c2cccs2)s1
1 (yes)
